Tested on: EKVX
Assay: NCI tumour cell line growth inhibition, 48 h
Active and inactive are the calls of the source. Rule as the data show it: active = GI50 up to about 1.1 µM and inactive = higher.
Hi! Could you answer with just one of these? Yes = active, No = inactive

Answered cases to consult:
CC[C@H](C)C(=O)O[C@H]1C[C@@H](C)C=C2C=C[C@H](C)[C@H](CC[C@@H]3C[C@@H](O)CC(=O)O3)[C@H]21	No
COC(=O)C1C(C(=O)OC)C1(Br)CBr (stereo not drawn)	No
COc1ccc2[nH]c(S(=O)(=O)N3CC(CCl)c4ccc(N)cc43)cc2c1 (stereo not drawn)	No
Cc1ccc(C2(O)CS/C(=N\C34CC5CC(CC(C5)C3)C4)N2C(P(=O)(O)O)P(=O)(O)O)cc1 (stereo not drawn)	No

Ask: Please state the recorded outcome for this molecule: O=C(/C=C/c1ccco1)c1cccc(C(=O)/C=C/c2ccco2)n1
Result: No

Ask: Please state the recorded outcome for this molecule: N#C/C(=C\c1ccc(C(O)P(=O)(O)O)cc1)C(N)=O (stereo not drawn)
Result: No

Ask: Please state the recorded outcome for this molecule: Cc1ccc(NC(=O)CC(=O)n2nc(-c3ccccc3)c(/N=N\c3ccccc3[N+](=O)[O-])c2-c2ccccc2)cc1
Result: No

Ask: Please state the recorded outcome for this molecule: CC1(O)CCC2(C#N)CCC1C2O (stereo not drawn)
Result: No

Ask: Please state the recorded outcome for this molecule: O=C(Nc1ccc(Nc2ccc3c(c2)C(=O)c2ccccc2C3=O)c2c1C(=O)c1ccccc1C2=O)c1ccccc1
Result: No

====

Here the recorded GI50 is given for each entry.
Tested on: K562
Test: NCI tumour cell line growth inhibition, 48 h
The source made the active and inactive calls. Rule as the data show it: active = GI50 up to about 1.1 µM and inactive = higher.

Ask: Need GI50 of CN1C(=O)C2C=C3CCCCC3=CC2N(C)C1=O (configuration not stated) , thanks.
Result: > 100 µM (inactive)

Ask: Need GI50 of COc1ccc(C(CC(=O)c2cccs2)C(=O)c2ccc3c(c2)OCO3)cc1 (configuration not stated) , thanks.
Result: > 100 µM (inactive)

====

Here the recorded GI50 is given for each entry.
Test system: MDA-MB-231
Test: NCI tumour cell line growth inhibition, 48 h
Activity calls are given as the source filed them. No stated cut-off is given here; in the data, active = GI50 up to about 1.1 µM and inactive = higher.

Would you please look over these solved cases?
CNC(=O)CNC(=O)CCC(=O)OC	> 100 µM (inactive)
Cc1cc(Cl)ccc1Nc1nc2c(s1)C(=O)c1ccccc1C2=O	1.3 µM (inactive)

Ask: Need GI50 of Cc1ccccc1C1=C/C(=C(\SS/C(C(=O)c2ccc(OCC(=O)O)c(Cl)c2Cl)=C2\C=C(c3ccccc3C)SS2)C(=O)c2ccc(OCC(=O)O)c(Cl)c2Cl)SS1 , thanks.
Result: 22.6 µM (inactive)

Ask: Need GI50 of O=C1Nc2ccccc2/C1=N/NC(=S)Nc1ccccc1Cl , thanks.
Result: 11.3 µM (inactive)

Ask: Need GI50 of COC(=O)C1C(C(=O)OC)C1(Br)CBr (stereo not given) , thanks.
Result: 87.5 µM (inactive)

====

Test system: CCRF-CEM
Test: NCI tumour cell line growth inhibition, 48 h
The source made the active and inactive calls. Cut-off read from the data, not from the text of the source: active = GI50 up to about 1.1 µM and inactive = higher.
Hi! Could you answer with just one of these? True = active, False = inactive

Answered cases to consult:
COC(=O)C1=COC2OC3CC1C2C(C)O3 (stereo unspecified)	False
COc1ccc(/C=C\c2cc(OC)c(OC)c(OC)c2)cc1OCC(=O)O	False
COc1ccc2[nH]c3nnc(N)c-3nc2c1	False
Cc1c2ccccc2c(/C=N/NC(=O)CSCC(=O)N/N=C/c2c3ccccc3c(C)c3ccccc23)c2ccccc12	False

Ask: Please state the recorded outcome for this molecule: N#CC1=C(N2CCOCC2)CCC1
Result: False

Ask: Please state the recorded outcome for this molecule: O=c1cc(O)ccn1C1C=C(CO)C(O)C1O (stereo unspecified)
Result: False

Ask: Please state the recorded outcome for this molecule: COC(=O)C(=O)C(C(=O)C(=O)Nc1ccccc1C(N)=O)c1nc2ccc([N+](=O)[O-])cc2nc1O (stereo unspecified)
Result: False
